Target: UniProt P43405
pIC50: −log10 of the molar value. Square brackets hold non-standard residues; d marks the D form. Peptide text beside a SMILES is read from it. pY = N[C@@H](Cc1ccc(OP(=O)(O)O)cc1)C(=O)O

Compound	pIC50
CC(=O)N[C@@H](Cc1ccc(OP(=O)(O)O)cc1)C(=O)N[C@H](C(=O)NCC(=O)N[C@@H](CC(C)C)C(=O)N[C@@H](CC(N)=O)C(=O)N[C@H](C(=O)N[C@@H](CCCN=C(N)N)C(=O)N[C@@H](CO)C(=O)N[C@@H](CCC(N)=O)C(=O)N[C@@H](CCC(=O)O)C(=O)N[C@H](C(=O)N[C@@H](Cc1ccc(OP(=O)(O)O)cc1)C(=O)N[C@@H](CCC(=O)O)C(=O)N[C@H](C(=O)N[C@@H](CC(C)C)C(N)=O)[C@@H](C)O)[C@@H](C)O)[C@@H](C)O)[C@@H](C)O (Ac-[pY]TGLNTRSQET[pY]ETL-NH2)	6.89

----------
pKd: −log10 of the molar value. Numbered stars: 1 amine (or outer) side, 2 acyl side, 3 side chain; on linkers, the order of the positions; unused ones are H or OH. Square brackets hold non-standard residues; d marks the D form. Peptide text beside a SMILES is read from it. NH(CH2CH2O)6CH2CO = O=C(COCCOCCOCCOCCOCCOCCN[*:1])[*:2]; pY = N[C@@H](Cc1ccc(OP(=O)(O)O)cc1)C(=O)O; X1 = O=C(c1ccc(C#CCN[*:1])cc1)[*:2]
pKd, Tyrosine-protein kinase SYK (Homo sapiens, UniProt P43405), per-entry values.

Compound	pKd
CC(=O)N[C@@H](Cc1ccc(OP(=O)(O)O)cc1)C(=O)N[C@H](C(=O)NCC(=O)N[C@@H](CC(C)C)C(=O)NCCOCCOCCOCCOCCOCCOCC(=O)N[C@@H](Cc1ccc(OP(=O)(O)O)cc1)C(=O)N[C@@H](CCC(=O)O)C(=O)N[C@H](C(=O)N[C@@H](CC(C)C)C(N)=O)[C@@H](C)O)[C@@H](C)O (Ac-[pY]TGL[NH(CH2CH2O)6CH2CO][pY]ETL-NH2)	6.47
CC(=O)N[C@@H](Cc1ccc(OP(=O)(O)O)cc1)C(=O)N[C@H](C(=O)NCC(=O)N[C@@H](CC(C)C)C(=O)N[C@@H](CC(N)=O)C(=O)N[C@H](C(=O)N[C@@H](CCCN=C(N)N)C(=O)N[C@@H](CO)C(=O)N[C@@H](CCC(N)=O)C(=O)N[C@@H](CCC(=O)O)C(=O)N[C@H](C(=O)N[C@@H](Cc1ccc(OP(=O)(O)O)cc1)C(=O)N[C@@H](CCC(=O)O)C(=O)N[C@H](C(=O)N[C@@H](CC(C)C)C(N)=O)[C@@H](C)O)[C@@H](C)O)[C@@H](C)O)[C@@H](C)O (Ac-[pY]TGLNTRSQET[pY]ETL-NH2)	7.43
CC(=O)N[C@@H](Cc1ccc(OP(=O)(O)O)cc1)C(=O)N[C@H](C(=O)NCC(=O)N[C@@H](CC(C)C)C(=O)NCC(=O)NCC#Cc1ccc(C(=O)NCC(=O)N[C@@H](Cc2ccc(OP(=O)(O)O)cc2)C(=O)N[C@@H](CCC(=O)O)C(=O)N[C@H](C(=O)N[C@@H](CC(C)C)C(N)=O)[C@@H](C)O)cc1)[C@@H](C)O (Ac-[pY]TGLG[X1]G[pY]ETL-NH2)	5.40

Cited source for all entries: ChEMBL document CHEMBL1136671
